Each entry below carries its recorded Dose.FC.LYZ.S.
- Tested on: ENR+CD organoids (ISC to Paneth cell differentiation)
- Experiment summary: Primary screen: CCh-stimulated lysozyme secretion LYZ.S, 2.5-D 384-well ENR+CD organoid differentiation
- Assay type: cell-based, mouse
- Stated conditions: primary screen, dose 2.00 uM
Structures can show the parent of a compound that is named as a salt.
Report the figure in log2 fold change without appending any unit label.

Fill in Dose.FC.LYZ.S for record COc1ccc2cccc(CCNC(C)=O)c2c1 [Agomelatine]
−0.037

Fill in Dose.FC.LYZ.S for record COc1ccc2cc(-c3nc(-c4ccc([S+](C)[O-])cc4)[nH]c3-c3ccncc3)ccc2c1 (stereo not drawn) [Tie2 kinase inhibitor]
0.024

Fill in Dose.FC.LYZ.S for record Cc1cc([C@@H](C)Nc2ccccc2C(=O)O)c2nc(N3CCOCC3)cc(=O)n2c1 [AZD6482]
−0.114

Fill in Dose.FC.LYZ.S for record CCNC(=O)[C@H]1O[C@@H](n2cnc3c(N)nc(NCCc4ccc(CCC(=O)O)cc4)nc32)[C@H](O)[C@@H]1O [CGS 21680 HCl]
0.097

Fill in Dose.FC.LYZ.S for record CC(/C=C/C(=O)NO)=C\[C@@H](C)C(=O)c1ccc(N(C)C)cc1 [Trichostatin A (TSA)]
−0.210

Fill in Dose.FC.LYZ.S for record COc1ccccc1OCCNCC(O)COc1cccc2[nH]c3ccccc3c12 (stereo not drawn) [Carvedilol]
−0.087

Fill in Dose.FC.LYZ.S for record O=C(O)c1ccc(N2C(=O)/C(=C\c3ccc(-c4ccc([N+](=O)[O-])cc4)o3)C=C2c2ccccc2)cc1 [4E1RCat]
0.049

Fill in Dose.FC.LYZ.S for record CC(C)n1c(/C=C/C(O)CC(O)CC(=O)O)c(-c2ccc(F)cc2)c2ccccc21 (stereo not drawn) [Fluvastatin Sodium]
−0.293

Fill in Dose.FC.LYZ.S for record C[C@@H](NCCCc1cccc(C(F)(F)F)c1)c1cccc2ccccc12 [Cinacalcet HCl]
−0.025

Fill in Dose.FC.LYZ.S for record O=C(Nc1cccc(Nc2ncc(Br)c(NCCc3cnc[nH]3)n2)c1)N1CCCC1 [BX-912]
−0.161

Fill in Dose.FC.LYZ.S for record CC(C)c1cc(-c2n[nH]c(=O)n2-c2ccc3c(ccn3C)c2)c(O)cc1O [Ganetespib (STA-9090)]
−0.260

Fill in Dose.FC.LYZ.S for record O=c1cc(-c2ccc(O)cc2)oc2cc(O)cc(O)c12 [Apigenin]
0.196

---

- System: ENR+CD organoids
- Experiment summary: Primary screen: ATP (CellTiter-Glo 3D, CTG) cell number/viability, 2.5-D 384-well ENR+CD organoids;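 further: compounds given at plating and again on day 3 over a 6-day differentiation from ENR+CV stem-cell-enriched precursors, ATP measured on day 6, plate median as control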
- Stated conditions: primary screen, dose 2.00 uM
Each entry below carries its recorded Dose.FC.CTG (log2 fold change).
Simply state the number, no unit and no words.

Give Dose.FC.CTG (log2 fold change); test system ENR+CD organoids; compound Cc1ccc(NCCCc2ccccc2)c(N)c1
0.074

Give Dose.FC.CTG (log2 fold change); test system ENR+CD organoids; compound O=C1[C@H](Cc2ccc(O)cc2)N2C(=O)CCN(C(=O)NCc3ccccc3)[C@H]2CN1Cc1cccc2ccccc12
0.143

Give Dose.FC.CTG (log2 fold change); test system ENR+CD organoids; compound Nc1cccc2c1CN(C1CCC(=O)NC1=O)C2=O (centres unmarked) [Lenalidomide (CC-5013)]
−0.250

Give Dose.FC.CTG (log2 fold change); test system ENR+CD organoids; compound CCc1c2c(nc3ccc(OC(=O)N4CCC(N5CCCCC5)CC4)cc13)-c1cc3c(c(=O)n1C2)COC(=O)[C@]3(O)CC
−0.785

Give Dose.FC.CTG (log2 fold change); test system ENR+CD organoids; compound Cc1cc(SCc2sc(-c3ccc(C(F)(F)F)c(F)c3)nc2C)ccc1OCC(=O)O
−0.249

---

- Test system: ENR+CD organoids (ISC to Paneth cell differentiation)
- Experiment summary: Primary screen: CCh-stimulated lysozyme secretion LYZ.S, 2.5-D 384-well ENR+CD organoid differentiation
- Assay type: cell-based, mouse
- Stated conditions: primary screen, dose 2.00 uM
# satisfied = Dose.FC.LYZ.S below -0.008 log2 fold change (exclusive); not satisfied = Dose.FC.LYZ.S at/above -0.008 log2 fold change

* CC(C)N(CC[C@H](c1ccccc1)c1cc(CO)ccc1O)C(C)C [4CE°8C] | satisfied
* CC(C)C[C@H](NC(=O)[C@@H](NC(=O)c1cccc(-c2ccccc2)n1)[C@@H](C)O)B(O)O | satisfied
* Cc1nc(C(=O)NCC(=O)O)c(O)c2ccc(Oc3ccccc3)cc12 | not satisfied

Given O=C(NCc1ccccc1)c1csc(Nc2ccncn2)n1 , is recorded Dose.FC.LYZ.S strictly lower than -0.008 log2 fold change?
not satisfied

Given OC[C@H]1O[C@@H](c2ccc(Cl)c(Cc3ccc(O[C@H]4CCOC4)cc3)c2)[C@H](O)[C@@H](O)[C@@H]1O , is recorded Dose.FC.LYZ.S strictly lower than -0.008 log2 fold change?
satisfied

Given CC(C)N(CC[C@H](c1ccccc1)c1cc(CO)ccc1O)C(C)C [5-hydroxymethyl Tolterodine (PNU 200577, 5-HMT, 5-HM)] , is recorded Dose.FC.LYZ.S strictly lower than -0.008 log2 fold change?
not satisfied

Given CCC(=O)Nc1cccc(Oc2nc(Nc3ccc(N4CCN(C)CC4)cc3OC)ncc2Cl)c1 , is recorded Dose.FC.LYZ.S strictly lower than -0.008 log2 fold change?
satisfied

---

- Tested on: ENR+CD organoids (ISC to Paneth cell differentiation)
- Experiment summary: Primary screen: basal (non-stimulated) lysozyme secretion LYZ.NS, 2.5-D 384-well ENR+CD organoid differentiation
- Type: cell-based, mouse
- Stated conditions: primary screen, dose 0.08 uM
Observable: Dose.FC.LYZ.NS (log2 fold change)
Simply state the number, no unit and no words.

Completed entries (count: 2):
- Cc1cc(Nc2cc(CN3CCOCC3)c3nc(C)c(Cc4ccc(Cl)cc4F)n3n2)n[nH]1: 0.132
- CCN(CC)CC(=O)Nc1c(C)cccc1C: 0.106

Fill in Dose.FC.LYZ.NS (log2 fold change) for record CCn1c(=O)c2c(nc(/C=C/c3ccc(OC)c(OC)c3)n2C)n(CC)c1=O
−0.015

Fill in Dose.FC.LYZ.NS (log2 fold change) for record CC[C@H](C)C(=O)O[C@H]1C[C@@H](C)C=C2C=C[C@H](C)[C@H](CC[C@@H]3C[C@@H](O)CC(=O)O3)[C@H]21
0.002

Fill in Dose.FC.LYZ.NS (log2 fold change) for record Oc1ccc2ccccc2c1SSc1c(O)ccc2ccccc12
0.004

---

- System: ENR+CD organoids (ISC to Paneth cell differentiation)
- Experiment summary: Primary screen: CCh-stimulated lysozyme secretion LYZ.S, 2.5-D 384-well ENR+CD organoid differentiation
- Format: cell-based, mouse
- Stated conditions: primary screen, dose 2.00 uM
Where a name gives a salt, the structure may show the parent alone.
Observable: Dose.FC.LYZ.S (log2 fold change)
Simply state the number, no unit and no words.

- Cc1ccc(NCCCc2ccccc2)c(N)c1 [JSH-23]: 0.005

Fill in Dose.FC.LYZ.S (log2 fold change) for record Cc1cccc(-c2nn3c(c2-c2ccnc4ccc(C(N)=O)cc24)CCC3)n1 [LY2157299]
0.113

Fill in Dose.FC.LYZ.S (log2 fold change) for record Cc1c(C(=O)Nc2ccc(N3C[C@@H](C)O[C@@H](C)C3)nc2)cccc1-c1ccc(OC(F)(F)F)cc1 [LDE225 (NVP-LDE225, Erismodegib)]
0.002

Fill in Dose.FC.LYZ.S (log2 fold change) for record Cl.Cl.O=S(=O)(NCCNC/C=C/c1ccc(Br)cc1)c1cccc2cnccc12 [H 89 2HCl]
0.087

Fill in Dose.FC.LYZ.S (log2 fold change) for record CCc1c2c(nc3ccc(OC(=O)N4CCC(N5CCCCC5)CC4)cc13)-c1cc3c(c(=O)n1C2)COC(=O)[C@]3(O)CC [Irinotecan]
−0.247

Fill in Dose.FC.LYZ.S (log2 fold change) for record CCn1c(-c2nonc2N)nc2c(C#CC(C)(C)O)ncc(OC[C@H]3CCCNC3)c21 [GSK690693]
0.124

Fill in Dose.FC.LYZ.S (log2 fold change) for record COc1ccc2c(c1)C(=O)N(CCc1ccc(S(=O)(=O)NC(=O)NC3CCCCC3)cc1)C(=O)C2(C)C [Gliquidone]
0.006

Fill in Dose.FC.LYZ.S (log2 fold change) for record CC12CC3CC(C)(C1)CC(N)(C3)C2 [Memantine HCl]
0.051

---

- Test system: ENR+CD organoids (ISC to Paneth cell differentiation)
- Experiment summary: Primary screen: basal (non-stimulated) lysozyme secretion LYZ.NS, 2.5-D 384-well ENR+CD organoid differentiation
- Format: cell-based, mouse
- Stated conditions: primary screen, dose 0.40 uM
Each entry below carries its recorded Dose.FC.LYZ.NS.
Report the figure in log2 fold change without appending any unit label.

Completed entries (count: 3):
• N#Cc1c(O)c2c(-c3ccc(-c4ccccc4O)cc3)csc2[nH]c1=O = 0.069
• O=C(Nc1cccc(Nc2ncc(Br)c(NCCc3cnc[nH]3)n2)c1)N1CCCC1 = 0.017
• COc1cc2ncnc(Nc3ccc(Cl)cc3F)c2cc1OC = −0.223

Turning now to a further record.
Fill in Dose.FC.LYZ.NS for record C=CCNC1=C2C[C@@H](C)C[C@H](OC)[C@H](O)[C@@H](C)/C=C(\C)[C@H](OC(N)=O)[C@@H](OC)/C=C\C=C(/C)C(=O)NC(=CC1=O)C2=O
−0.205
